Assay: Metabolic stability test: liver microsomal stability assay
Format: in vitro ADME, mouse
Details: male, pH 7.4; mouse liver microsomes 0.5 mg protein/mL, compound 1 µM, presence of NADPH; read-out: Mouse Hepatic Microsome CLh,int NADPH(+)
Starred links: 1 amine or outer side, 2 acyl side, 3 side chain; linkers in the order of their positions; H or OH if unused. Positions of bridges follow the written chain, without caps; N, C: chain ends. Non-standard residues stand in square brackets, D forms with d. Residues, ends and D or L forms follow the SMILES beside them. *: point of attachment. NMeF = CN[C@@H](Cc1ccccc1)C(=O)O; NMeI = CC[C@H](C)[C@H](NC)C(=O)O; NMeT = CN[C@H](C(=O)O)[C@@H](C)O; NMeβAla = CN(CCC(=O)[*:2])[*:1]; NMeD = CN[C@@H](CC(=O)O)C(=O)O; NMeL = CN[C@@H](CC(C)C)C(=O)O; NMeV = CN[C@H](C(=O)O)C(C)C; d(β3hA) = C[C@@H](N)CC(=O)O; NMeAbu = CC[C@H](NC)C(=O)O; NMeA = CN[C@@H](C)C(=O)O; Piperidide = C1CCN(*)CC1; Abu = CC[C@H](N)C(=O)O; NBuGly = CCCCNCC(=O)O; Sar = CNCC(=O)O; tBu = CC(C)(C)*
Recorded microsomal CLint at 1 µM for the following compounds

// below: answered compounds
CCCCN1CC(=O)N[C@@H](C)C(=O)N(C)[C@@H](Cc2ccccc2)C(=O)N[C@@H](CC(C)C)C(=O)N[C@@H](C)C(=O)N(C)[C@@H](C(C)C)C(=O)N[C@H](C(=O)N2CCCCC2)CC(=O)N[C@H](C(C)C)C(=O)N(C)[C@@H](Cc2ccccc2)C(=O)N[C@@H](CC)C(=O)N(C)[C@@H](C(C)C)C(=O)N(C)CCC(=O)N[C@@H]([C@@H](C)O)C(=O)N(C)[C@@H](CC(C)C)C1=O [pd019] ([dV][NMeF][Abu][NMeV][NMeβAla]T[NMeL][NBuGly]A[NMeF]LA[NMeV]D-Piperidide; lactam N-14): 34.7 µL/min/mg
CC[C@@H]1NC(=O)[C@H](CC(C)C)N(C)C(=O)[C@H](CC(C)C)NC(=O)[C@H](C)N(C)C(=O)C[C@@H](C(=O)N2CCCCC2)N(C)C(=O)[C@H](C)N(C)C(=O)[C@H](CC(C)C)NC(=O)[C@H](CC(C)C)N(C)C(=O)CNC(=O)[C@H]([C@@H](C)CC)N(C)C(=O)[C@H](Cc2ccccc2)N(C)C(=O)[C@H](C)NC(=O)[C@H]([C@@H](C)CC)NC(=O)[C@H](Cc2ccccc2)N(C)C1=O [pd075] ([NMeA]L[NMeL][Abu][NMeF]IA[NMeF][NMeI]G[NMeL]L[NMeA][NMeD]-Piperidide; lactam N-14): 35.6 µL/min/mg
CC[C@H](C)[C@@H]1NC(=O)[C@H](CC(C)C)N(C)C(=O)C[C@@H](C)NC(=O)[C@H](C(C)C)N(C)C(=O)[C@H](COC(C)(C)C)NC(=O)[C@H](CC)N(C)C(=O)[C@H](Cc2ccccc2)N(C)C(=O)[C@H](CC(C)C)NC(=O)[C@@H]2CCCN2C(=O)[C@H]([C@@H](C)O)N(C)C(=O)[C@H](CC(C)C)N(C)C(=O)[C@H](CC)N(C)C(=O)[C@H](CC(C)C)N(C)C1=O [pd139] (cyclo(I[NMeL][NMeAbu][NMeL][NMeT]PL[NMeF][NMeAbu]S(tBu)[NMeV][d(β3hA)][NMeL])): 32.3 µL/min/mg

Requested field: microsomal CLint at 1 µM. Item: CC(C)C[C@@H]1NC(=O)[C@@H]2CCCN2C(=O)[C@H](C(C)C)N(C)C(=O)[C@H](C)NC(=O)[C@H](CC(C)C)N(C)C(=O)[C@@H](C(C)C)NC(=O)C[C@@H](C(=O)N2CCCCC2)NC(=O)[C@H](C(C)C)N(C)C(=O)[C@H](Cc2ccccc2)N(C)C(=O)[C@H](CC(C)C)NC(=O)[C@H](COC(C)(C)C)NC(=O)[C@H](CC(C)C)N(C)C(=O)CN(C)C1=O [pd097] ([dV][NMeL]A[NMeV]PL[Sar][NMeL]S(tBu)L[NMeF][NMeV]D-Piperidide; lactam N-13) 20.4 µL/min/mg

====

Recorded Caco2 Papp (10^-6 cm/sec) for the following compounds
Test system: Caco-2 cells
Assay: Membrane permeability test using Caco-2 cells with preincubation
Type: in vitro ADME
Conditions: Caco-2 cells, preincubation 20 to 24 hours; apical FaSSIF/HBSS 1% DMSO pH 6.0, basal HBSS 4% BSA pH 7.4; basal sample at 180 minutes
Positions of bridges follow the written chain, without caps; N, C: chain ends. Non-standard residues stand in square brackets, D forms with d. Residues, ends and D or L forms follow the SMILES beside them. *: point of attachment. NMeF = CN[C@@H](Cc1ccccc1)C(=O)O; NMeT = CN[C@H](C(=O)O)[C@@H](C)O; hPhe = N[C@@H](CCc1ccccc1)C(=O)O; NMeL = CN[C@@H](CC(C)C)C(=O)O; NMeV = CN[C@H](C(=O)O)C(C)C; d(β3hA) = C[C@@H](N)CC(=O)O; NMeA = CN[C@@H](C)C(=O)O; Piperidide = C1CCN(*)CC1; Abu = CC[C@H](N)C(=O)O; Sar = CNCC(=O)O; tBu = CC(C)(C)*

CC(C)C[C@@H]1NC(=O)[C@H]([C@@H](C)O)N(C)C(=O)[C@@H](C(C)C)NC(=O)C[C@@H](C(=O)N2CCCCC2)NC(=O)[C@H](C(C)C)N(C)C(=O)[C@H](C)N(C)C(=O)[C@H](Cc2ccccc2)N(C)C(=O)[C@@H]2CCCN2C(=O)[C@H](CC(C)C)N(C)C(=O)CN(C)C(=O)[C@H](CCc2ccccc2)NC(=O)[C@H](CC(C)C)N(C)C(=O)[C@H](C(C)C)N(C)C1=O [pd116] ([dV][NMeT]L[NMeV][NMeL][hPhe][Sar][NMeL]P[NMeF][NMeA][NMeV]D-Piperidide; lactam N-13): 0.19 10^-6 cm/sec

Let's switch to this compound now.
Requested field: Caco2 Papp (10^-6 cm/sec). Item: CC[C@@H]1NC(=O)[C@H](Cc2ccccc2)N(C)C(=O)[C@H](COC(C)(C)C)NC(=O)[C@H](CC(C)C)N(C)C(=O)[C@H](C(C)C)NC(=O)CN(C)C(=O)[C@H]([C@@H](C)O)NC(=O)[C@H](CC(C)C)N(C)C(=O)[C@H](C(C)C)NC(=O)[C@H](Cc2ccccc2)N(C)C(=O)[C@H](C)N(C)C(=O)[C@@H](C)NC(=O)C[C@@H](C)NC(=O)[C@H](C(C)C)N(C)C1=O [pd008] (cyclo([Abu][NMeV][d(β3hA)][dA][NMeA][NMeF]V[NMeL]T[Sar]V[NMeL]S(tBu)[NMeF])) 0.04 10^-6 cm/sec

====

Assay: Metabolic stability test: liver microsomal stability assay
Assay type: in vitro ADME, mouse
Settings: mouse liver microsomes 0.5 mg protein/mL, compound 1 µM, absence of NADPH
Starred links: 1 amine or outer side, 2 acyl side, 3 side chain; linkers in the order of their positions; H or OH if unused. Positions of bridges follow the written chain, without caps; N, C: chain ends. Non-standard residues stand in square brackets, D forms with d. Residues, ends and D or L forms follow the SMILES beside them. *: point of attachment. NMeF = CN[C@@H](Cc1ccccc1)C(=O)O; NMeGABA = CN(CCCC(=O)[*:2])[*:1]; NMeI = CC[C@H](C)[C@H](NC)C(=O)O; NMeT = CN[C@H](C(=O)O)[C@@H](C)O; hPhe = N[C@@H](CCc1ccccc1)C(=O)O; NMeβAla = CN(CCC(=O)[*:2])[*:1]; NMeL = CN[C@@H](CC(C)C)C(=O)O; NMeV = CN[C@H](C(=O)O)C(C)C; d(β3hA) = C[C@@H](N)CC(=O)O; NMeAbu = CC[C@H](NC)C(=O)O; NMeA = CN[C@@H](C)C(=O)O; Piperidide = C1CCN(*)CC1; Abu = CC[C@H](N)C(=O)O; NBuGly = CCCCNCC(=O)O; βAla = NCCC(=O)O; Sar = CNCC(=O)O; tBu = CC(C)(C)*
Field 'label' (enum: Met / Not met). Set to Met when Mouse Hepatic Microsome CLh,int NADPH(-) is strictly under 30 µL/min/mg Protein; else Not met.

CC[C@H](C)[C@@H]1NC(=O)[C@H](C)N(C)C(=O)[C@H]([C@@H](C)O)N(C)C(=O)[C@H](CC(C)C)N(C)C(=O)[C@H](C(C)C)NC(=O)[C@H](Cc2ccccc2)N(C)C(=O)[C@H](Cc2ccccc2)N(C)C(=O)[C@H](C)NC(=O)[C@H](CC)N(C)C(=O)[C@H]([C@@H](C)CC)NC(=O)CCCN(C)C(=O)C[C@@H](C)NC(=O)[C@H](C(C)C)N(C)C1=O [pd132] (cyclo(A[NMeF][NMeF]V[NMeL][NMeT][NMeA]I[NMeV][d(β3hA)][NMeGABA]I[NMeAbu])): Met
CC[C@@H]1NC(=O)CCN(C)C(=O)C[C@@H](C)NC(=O)[C@H](CC(C)C)N(C)C(=O)[C@H]([C@@H](C)O)NC(=O)[C@H](C)N(C)C(=O)[C@H]([C@@H](C)CC)NC(=O)[C@H](CCc2ccccc2)NC(=O)[C@H](CC(C)C)N(C)C(=O)[C@H](C)N(C)C(=O)[C@H](Cc2ccccc2)N(C)C(=O)[C@@H]2CCCN2C(=O)[C@H]([C@@H](C)CC)NC(=O)[C@H](CC(C)C)N(C)C1=O [pd051] (cyclo([Abu][NMeL]IP[NMeF][NMeA][NMeL][hPhe]I[NMeA]T[NMeL][d(β3hA)][NMeβAla])): Met
CC[C@@H]1NC(=O)[C@H](Cc2ccccc2)N(C)C(=O)[C@H](COC(C)(C)C)NC(=O)[C@H](CC(C)C)N(C)C(=O)[C@H](C(C)C)NC(=O)CN(C)C(=O)[C@H]([C@@H](C)O)NC(=O)[C@H](CC(C)C)N(C)C(=O)[C@H](C(C)C)NC(=O)[C@H](Cc2ccccc2)N(C)C(=O)[C@H](C)N(C)C(=O)[C@@H](C)NC(=O)C[C@@H](C)NC(=O)[C@H](C(C)C)N(C)C1=O [pd008] (cyclo([Abu][NMeV][d(β3hA)][dA][NMeA][NMeF]V[NMeL]T[Sar]V[NMeL]S(tBu)[NMeF])): Met
CC[C@H](C)[C@@H]1NC(=O)[C@H](CC(C)C)N(C)C(=O)C[C@@H](C(=O)N2CCCCC2)NC(=O)[C@H](Cc2ccccc2)N(C)C(=O)[C@H](C(C)C)NC(=O)[C@@H]2CCCN2C(=O)[C@H]([C@@H](C)CC)NC(=O)[C@H](CC)N(C)C(=O)[C@H](C(C)C)N(C)C(=O)[C@H](CC(C)C)NC(=O)[C@H](CC(C)C)N(C)C(=O)[C@H]([C@@H](C)O)NC(=O)[C@H](Cc2ccccc2)NC(=O)CN(C)C1=O [pd029] ([NMeL]I[Sar]FT[NMeL]L[NMeV][NMeAbu]IPV[NMeF]D-Piperidide; lactam N-14): Not met
CCCCN1CC(=O)N(C)[C@@H](CC)C(=O)N[C@H](C(=O)N2CCCCC2)CC(=O)N(C)[C@@H](C)C(=O)N[C@@H]([C@@H](C)CC)C(=O)N(C)[C@@H](Cc2ccccc2)C(=O)N(C)[C@@H](CC(C)C)C(=O)N[C@@H](C(C)C)C(=O)N(C)CC(=O)N[C@@H](CC(C)C)C(=O)N(C)[C@@H](Cc2ccccc2)C(=O)N(C)[C@@H](C)C(=O)N[C@@H](CC(C)C)C1=O [pd099] ([NMeA]I[NMeF][NMeL]V[Sar]L[NMeF][NMeA]L[NBuGly][NMeAbu]D-Piperidide; lactam N-13): Met

Item CC[C@@H]1NC(=O)[C@H](C)N(C)C(=O)[C@H](CC(C)C)N(C)C(=O)[C@H]([C@@H](C)O)N(C)C(=O)[C@H](CC(C)C)N(C)C(=O)CCNC(=O)[C@H](Cc2ccccc2)N(C)C(=O)CN(C)C(=O)C[C@@H](C(=O)N2CCCCC2)NC(=O)[C@H](C(C)C)N(C)C(=O)[C@H](C)N(C)C(=O)[C@@H]2CCCN2C(=O)[C@H](C(C)C)NC(=O)[C@H](Cc2ccccc2)N(C)C1=O [pd005] ([Sar][NMeF][βAla][NMeL][NMeT][NMeL][NMeA][Abu][NMeF]VP[NMeA][NMeV]D-Piperidide; lactam N-14) : Mouse Hepatic Microsome CLh,int NADPH(-) beneath 30 µL/min/mg Protein, strictly? Met

Item CC[C@H](C)[C@@H]1NC(=O)[C@H](C)NC(=O)[C@H](C(C)C)N(C)C(=O)[C@H](COC(C)(C)C)NC(=O)[C@H](C)N(C)C(=O)C[C@@H](C(=O)N2CCCCC2)NC(=O)[C@H](C(C)C)NC(=O)[C@H](Cc2ccccc2)N(C)C(=O)[C@H](CC(C)C)N(C)C(=O)[C@H]([C@@H](C)O)NC(=O)[C@H](CC)N(C)C(=O)[C@H](Cc2ccccc2)N(C)C(=O)[C@H](C)NC(=O)[C@@H]2CCCN2C1=O [pd025] ([NMeA]S(tBu)[NMeV]AIPA[NMeF][NMeAbu]T[NMeL][NMeF]VD-Piperidide; lactam N-14) : Mouse Hepatic Microsome CLh,int NADPH(-) beneath 30 µL/min/mg Protein, strictly? Met

Item CC[C@H](C)[C@@H]1NC(=O)[C@H](CC(C)C)N(C)C(=O)[C@H](CC(C)C)NC(=O)[C@H](C)N(C)C(=O)C[C@@H](C(=O)N2CCCCC2)NC(=O)[C@H](CC(C)C)NC(=O)[C@@H]2CCCN2C(=O)[C@H](CC(C)C)N(C)C(=O)[C@H]([C@@H](C)O)NC(=O)[C@H]([C@@H](C)CC)N(C)C(=O)[C@H](Cc2ccccc2)N(C)C(=O)[C@H](C)NC(=O)[C@H](Cc2ccccc2)N(C)C(=O)[C@H](CC(C)C)NC1=O [pd027] ([NMeA]L[NMeL]IL[NMeF]A[NMeF][NMeI]T[NMeL]PLD-Piperidide; lactam N-14) : Mouse Hepatic Microsome CLh,int NADPH(-) beneath 30 µL/min/mg Protein, strictly? Not met

These measurements were taken from patent EP4768499A1.
